Task for the reader: assign each of the following binders its reported pKd.
assay.target: Glucagon-like peptide-1 receptor extracellular domain
assay.procedure: SPR; Biacore 8K, according to the user's manual; who was immobilised and the conditions are not stated
Ends that are not written are not given here. fatty chain = not defined here
Answers are plain numbers, as −log10 of the molar value.

| binder | pKd |
| --- | --- |
| FFYSSPSAYLEKGGPSSGAPPPS [PEP16] | 7.64 |

Each binder below has a reported value. Please supply its pKd.
1. FFYSSPSAK(fatty chain)LETGGPSSGAPPPS (reading uncertain; also: fatty chain not given here) [PEP17]
2. FFYSSPSAYKETGGPSSGAPPPS [PEP14]
3. FFYSSPSAKLETGGPSSGAPPPS [PEP13]

6.80
7.28
7.01

I have 5 binders here; please give me pKd for each one.
1. FFYSSPSAYK(fatty chain)ETGGPSSGAPPPS (reading uncertain; also: fatty chain not given here) [PEP18]
2. FFYSSPSAYLKTGGPSSGAPPPS [PEP15]
3. FFYSSPSAYLK(fatty chain)TGGPSSGAPPPS (reading uncertain; also: fatty chain not given here) [PEP19]
4. FFYSSPSAYLEK(fatty chain)GGPSSGAPPPS (reading uncertain; also: fatty chain not given here) [PEP20]
5. KQYSSPTAWLVGGPSSGAPPPS [PEP09]

1: 7.21; 2: 7.48; 3: 7.04; 4: 7.60; 5: 6.60
